Below, each entry is listed with its recorded cell viability.
- Tested on: P12-Ichikawa
- ASSAY_EXPLANATION: cell viability relative to DMSO control; higher = less cytotoxic
- CONDITION_INFO: RPMI 5 mM glucose + 10% dialyzed FBS; 48 h; 5.12 µM

| COMPOUND | cell viability [%] |
| --- | --- |
| OCc1ccc(-c2nn(Cc3ccccc3)c3ccccc23)o1 | 102 |
| CC(=O)C\1=C(/C)C2=CN=C(NC3=CC=C(C=N3)N4CCNCC4)N=C2N(C5CCCC5)C1=O | 76.9 |
| O=C(/C=C/c1c(C(=O)[O-])[nH]c2cc(Cl)cc(Cl)c12)Nc1ccccc1 | 66.2 |
| CC(=O)N1CCN(c2ccc(OCc3nn(C)c(C)c3-c3cccc4c(CCCOc5cccc6ccccc56)c(C(=O)O)n(Cc5cccnc5)c34)cc2)CC1 | 134 |
| CC(C)(C)C(=O)Oc1ccc([S+](=O)([O-])Nc2ccccc2C(=O)NCC(=O)O)cc1 | 122 |
| CC(C)Nc1cc(C(F)(F)F)cc2nc(NC(=O)c3cccnc3)nn12 | 24.1 |
| CCC1(c2ccc(N)cc2)CCC(=O)NC1=O (stereo not given) | 93.6 |
| O=C(NC[C@H](O)CN1CCc2ccccc2C1)c1cc(NC2COC2)ncn1 | 78.7 |
| C[C@H]1C[C@H]2[C@@H]3CCC4=CC(=O)C=C[C@]4(C)[C@@]3(F)[C@@H](O)C[C@]2(C)[C@@]1(O)C(=O)CO | 46 |
| O=C(Nc1cccc(Nc2ncc(Br)c(NCCc3cnc[nH]3)n2)c1)N1CCCC1 | 27.2 |

----------
- System: NOMO1
- ASSAY_EXPLANATION: cell viability relative to DMSO control; higher = less cytotoxic
- CONDITION_INFO: RPMI 5 mM glucose + 10% dialyzed FBS; 48 h; 5.12 µM
Below, each of the molecules is paired with its reported cell viability value.

| STRUCTURE_AS_SMILES | UNIT_OF_MEASURE | cell viability |
| --- | --- | --- |
| CCC[C@H](N[C@@H](C)C(=O)N1[C@H](C(=O)O)C[C@@H]2CCCC[C@@H]21)C(=O)OCC | % | 66.4 |
| C\C1=C\N([C@H]2C[C@H](N=[N+]=[N-])[C@@H](CO)O2)C(=O)NC1=O | % | 20.8 |
| C[C@@H](O)[C@@H]1[C@H]2[C@@H](C)\C(=C(/N2C1=O)C(=O)OCOC(=O)C(C)(C)C)SC3CN(C3)/C4=N/CCS4 | % | 100 |
| CC(C)[C@@H](C[S+](=O)([O-])C(C)C)N1C(=O)[C@@](C)(CC(=O)O)C[C@H](c2cccc(Cl)c2)[C@H]1c1ccc(Cl)cc1 | % | 47.1 |
| CCC(=O)OCC(=O)[C@@]1(OC(=O)CC)[C@@H](C)C[C@H]2[C@@H]3CCC4=CC(=O)C=C[C@]4(C)[C@@]3(F)[C@@H](O)C[C@@]21C | % | 84.3 |
| c1cc(CN2CCCNCCNCCCNCC2)ccc1CN1CCCNCCNCCCNCC1 | % | 91.3 |
| Oc1ccc(/C=C/c2cc(O)cc(O)c2)cc1 | % | 102 |
| CC(C)n1nc(-c2ccc3oc(N)nc3c2)c2c(N)ncnc21 | % | 43.2 |
| Oc1ccc(C2CCN(c3ccnc4ccccc34)CC2)cc1O | % | 111 |
| Cn1cc(-c2ccc3nnc(C(F)(F)c4ccc5ncccc5c4)n3n2)cn1 | % | 99.5 |
| Cc1cc(Nc2nc(N[C@@H](C)c3ncc(F)cn3)ncc2Cl)n[nH]1 | % | 112 |
| Clc1cc(Cl)cc(CNc2ncncc2-c2ccc3c(c2)OCO3)c1 | % | 88.8 |
| Cc1ncc(OC[C@@]2(c3cccc(F)c3)C[C@H]2C(=O)Nc2ccc(F)cn2)c(C)n1 | % | 112 |
| CC(C)Oc1cc(Nc2nc(N[C@@H](C)c3ccc(F)cn3)ncc2Cl)n[nH]1 | % | 57.6 |
| CC(C)(C)C(=O)Oc1ccc([S+](=O)([O-])Nc2ccccc2C(=O)NCC(=O)O)cc1 | % | 129 |
| COc1cc2c(Oc3ccc(NC(=O)C4(C(=O)Nc5ccc(F)cc5)CC4)cc3F)ccnc2cc1OCCCN1CCOCC1 | % | 43.3 |

----------
- Test system: SEM cells
- ASSAY_EXPLANATION: cell viability relative to DMSO control; higher = less cytotoxic
- CONDITION_INFO: RPMI 5 mM glucose + 10% FBS; 48 h; 15.4 µM
A collection of molecules and their measured cell viability
ASSAY_READOUT: cell viability (%)

| STRUCTURE_AS_SMILES | MEASUREMENT_TARGET | ASSAY_READOUT | UNIT_OF_MEASURE | RESULT |
| --- | --- | --- | --- | --- |
| N[S+](=O)([O-])c1cc(Cl)c(Cl)c([S+](N)(=O)[O-])c1 | SEM cells | cell viability | % | 35.5 |
| Cn1cc(-c2ccc3nnc(C(F)(F)c4ccc5ncccc5c4)n3n2)cn1 | SEM cells | cell viability | % | 121 |
| CCc1c(C(=O)C(N)=O)c2c(OCC(=O)O)cccc2n1Cc1ccccc1 | SEM cells | cell viability | % | 88.4 |
| CCC(=O)OCC(=O)[C@@]1(OC(=O)CC)[C@@H](C)C[C@H]2[C@@H]3CCC4=CC(=O)C=C[C@]4(C)[C@@]3(F)[C@@H](O)C[C@@]21C | SEM cells | cell viability | % | 69.9 |
| Clc1cc(Cl)cc(CNc2ncncc2-c2ccc3c(c2)OCO3)c1 | SEM cells | cell viability | % | 86.6 |
| CCC[C@H](N[C@@H](C)C(=O)N1[C@H](C(=O)O)C[C@@H]2CCCC[C@@H]21)C(=O)OCC | SEM cells | cell viability | % | 98.6 |
| CCOc1ccc(Nc2nc(-c3c(C)nc4ccccn34)cs2)cc1 | SEM cells | cell viability | % | 14.3 |
| CC(C)(C)C(=O)Oc1ccc([S+](=O)([O-])Nc2ccccc2C(=O)NCC(=O)O)cc1 | SEM cells | cell viability | % | 96.7 |
| CC\1=C(C(=O)N(\C=C1)C2=CC=C(C=C2)C3=NC=CO3)/C4=CC5=CN=C(N)N=C5C=C4 | SEM cells | cell viability | % | 29.5 |
| O=C(/C=C/c1c(C(=O)[O-])[nH]c2cc(Cl)cc(Cl)c12)Nc1ccccc1 | SEM cells | cell viability | % | 118 |
| O=C1C[C@@H](c2ccc(O)cc2)Oc2cc(O)cc(O)c21 | SEM cells | cell viability | % | 80.4 |
| Cc1cc(Nc2nc(N[C@@H](C)c3ncc(F)cn3)ncc2Cl)n[nH]1 | SEM cells | cell viability | % | 17.1 |
| CCNC(=O)c1cc2c(-c3cc(OCCN4CCCC4)c(Cl)cc3Cl)nc(N)nc2s1 | SEM cells | cell viability | % | 21.8 |
| O=C(/C=C/c1cccc([S+](=O)([O-])Nc2ccccc2)c1)NO | SEM cells | cell viability | % | 8.84 |
| COc1cc(Nc2ncc(F)c(Nc3ccc4c(n3)NC(=O)C(C)(C)O4)n2)cc(OC)c1OC | SEM cells | cell viability | % | 3.07 |
| COC[C@@H](NC(C)=O)C(=O)NCc1ccccc1 | SEM cells | cell viability | % | 103 |
| CC(C)C[C@H](NC(=O)[C@@H](NC(=O)c1cccc(-c2ccccc2)n1)[C@@H](C)O)B(O)O | SEM cells | cell viability | % | 4.03 |
| [NH2][Pt]([NH2])([Cl])[Cl] | SEM cells | cell viability | % | 65.1 |
| C[N+]1(C)[C@@H]2C[C@@H](OC(=O)[C@H](CO)c3ccccc3)C[C@H]1[C@@H]1O[C@@H]12.[Br-] | SEM cells | cell viability | % | 93.3 |
| Cc1c(Cn2c(C)nc3c(C(=O)O)cc(N4CCOCC4)cc32)cccc1C(F)(F)F | SEM cells | cell viability | % | 89.1 |
| CC(C)n1nc(-c2ccc3oc(N)nc3c2)c2c(N)ncnc21 | SEM cells | cell viability | % | 4.15 |
| OCc1ccc(-c2nn(Cc3ccccc3)c3ccccc23)o1 | SEM cells | cell viability | % | 37.4 |
| CC(=O)OCC(=O)[C@@]12\N=C(C)/O[C@@H]1C[C@H]3[C@@H]4CCC/5=C/C(=O)/C=C\[C@]5(C)[C@H]4[C@@H](O)C[C@]23C | SEM cells | cell viability | % | 86.6 |
| N=C(N)NC(=O)c1nc(Cl)c(N)nc1N | SEM cells | cell viability | % | 114 |
| CCCCNc1cc(C(=O)O)cc([S+](N)(=O)[O-])c1Oc1ccccc1 | SEM cells | cell viability | % | 141 |
| CCOC(=O)[C@H](CCc1ccccc1)N[C@@H](C)C(=O)N1CCC[C@H]1C(=O)O | SEM cells | cell viability | % | 120 |
| c1cc(CN2CCCNCCNCCCNCC2)ccc1CN1CCCNCCNCCCNCC1 | SEM cells | cell viability | % | 91.5 |
